Listed below: TGI values for each entry.
Tested on: MDA-MB-468 breast
Test: NCI tumour cell line growth inhibition, 384-well format
MEASURED_QUANTITY: TGI (µM)

Cn1cc(-c2ccc3c(c2)ncn3-c2cc(NS(=O)(=O)C3CC3)cc(-c3ccc(F)cc3F)c2)cn1: 6.44
O=C1[C@H](Cc2ccc(O)cc2)N2C(=O)CCN(C(=O)NCc3ccccc3)[C@H]2CN1Cc1cccc2ccccc12: 15.6
CNS(=O)(=O)Nc1nccc(Cc2c(C)c3ccc(Oc4ncccn4)cc3oc2=O)c1F: 5.95
COc1ccc(-c2c(Nc3ccccn3)nc3c(C4=CCCCC4)c(-c4ccccc4)[nH]n3c2=O)cc1: 2.78

###

Test system: T-47D breast
Assay: NCI tumour cell line growth inhibition, 384-well format
MEASURED_QUANTITY: GI50

COc1cc2c(Oc3ccc(-c4cnc(Nc5ccc(F)cc5)n(C)c4=O)cc3F)ccnc2cc1OCCCN1CCOCC1: 1070 nM
COc1ccc(-c2c(Nc3ccccn3)nc3c(C4=CCCCC4)c(-c4ccccc4)[nH]n3c2=O)cc1: 1060 nM
Cn1cc(-c2ccc3c(c2)ncn3-c2cc(NS(=O)(=O)C3CC3)cc(-c3ccc(F)cc3F)c2)cn1: 2630 nM
CNS(=O)(=O)Nc1nccc(Cc2c(C)c3ccc(Oc4ncccn4)cc3oc2=O)c1F: 3670 nM
Nc1cc(C(F)(F)F)c(-c2nc(N3CCOCC3)nc(N3CCOCC3)n2)cn1: 107 nM

###

Below is a list of entries, each paired with its recorded TGI value.
Tested on: OVCAR-4 ovarian
Assay: NCI tumour cell line growth inhibition, 384-well format
MEASURED_QUANTITY: TGI

O=C1[C@H](Cc2ccc(O)cc2)N2C(=O)CCN(C(=O)NCc3ccccc3)[C@H]2CN1Cc1cccc2ccccc12: 17.2 µM
Cn1cc(-c2ccc3c(c2)ncn3-c2cc(NS(=O)(=O)C3CC3)cc(-c3ccc(F)cc3F)c2)cn1: 37.6 µM
O=C(O)CSc1cc(NS(=O)(=O)c2ccc(Br)cc2)c2ccccc2c1O: 3.12 µM
C/C(=C\c1csc(C)n1)[C@@H]1C[C@@H]2O[C@]2(C)CCC[C@H](C)[C@H](O)[C@@H](C)C(=O)C(C)(C)[C@@H](O)CC(=O)N1: > 100 µM
COc1ccc(-c2c(Nc3ccccn3)nc3c(C4=CCCCC4)c(-c4ccccc4)[nH]n3c2=O)cc1: > 100 µM

###

Listed below: TGI values for each entry.
System: A549 NSCLC
Assay: NCI tumour cell line growth inhibition, 384-well format
MEASURED_QUANTITY: TGI

COc1ccc(-c2c(Nc3ccccn3)nc3c(C4=CCCCC4)c(-c4ccccc4)[nH]n3c2=O)cc1: > 100 µM
CNS(=O)(=O)Nc1nccc(Cc2c(C)c3ccc(Oc4ncccn4)cc3oc2=O)c1F: > 100 µM
C/C(=C\c1csc(C)n1)[C@@H]1C[C@@H]2O[C@]2(C)CCC[C@H](C)[C@H](O)[C@@H](C)C(=O)C(C)(C)[C@@H](O)CC(=O)N1: > 100 µM
